Each entry below carries its reported inhibition.
Assay: M. tuberculosis H37Rv growth inhibitors, H37Rv strain (AID 1626);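 further: bacteria incubated seven days before Alamar blue readout; 0% = bacteria only wells and 100% = bacteria with antibiotic wells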
Details: active compounds read high, concentration not given here
Out of some 220,000 compounds screened, about 2,000 (0.91%) were called active. Not shown: some 2% with an inconclusive outcome. Not all results are given here. Entries with a potency or affinity are not part of this list.
Could you give me the number in %? Just the number is fine.

IN: Tell me measured inhibition for O=S(=O)(c1ccc(Cl)s1)N1CCC(Cc2ccccc2)CC1 please.
OUT: -5.95

====

Experiment: M. tuberculosis H37Rv growth inhibitors, H37Rv strain (AID 1626);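 further: bacteria incubated seven days before Alamar blue readout; 0% = bacteria only wells and 100% = bacteria with antibiotic wells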
Conditions: active compounds read high, concentration not given here
In all, about 220,000 compounds went through this assay and about 2,000 (0.91%) were called active. Roughly 2% stayed inconclusive and do not appear here. A selection follows. Measured potencies and affinities stand elsewhere.
property: inhibition (%)
Could you give me the number in %? Just the number is fine.

As a guide, the following entries are already answered.
compound="NC(=O)c1cc2n(n1)C(C(F)(F)F)CC(c1ccco1)N2 (configuration not stated)" property=inhibition quantitative_result=-17
compound="COc1cc(NC(=O)CN2C(=O)NC(C)(c3ccccc3)C2=O)c(C)cc1[N+](=O)[O-] (configuration not stated)" property=inhibition quantitative_result=3.59

IN: Tell me measured inhibition for COC(=O)CSc1cnc2ccccc2n1 please.
OUT: -1.39

IN: Tell me measured inhibition for CN(CCc1ccccn1)C(=S)Nc1ccc(Cl)c(Cl)c1 please.
OUT: 3.62

IN: Tell me measured inhibition for CCOCC(=O)Nc1cc(Cl)ccc1C please.
OUT: -11.6
